Biological target: activated protein C (aPC; protein C from human plasma, activated, SIGMA P-2200) (human, UniProt P04070 43-461)
Sequence (P04070 43-461): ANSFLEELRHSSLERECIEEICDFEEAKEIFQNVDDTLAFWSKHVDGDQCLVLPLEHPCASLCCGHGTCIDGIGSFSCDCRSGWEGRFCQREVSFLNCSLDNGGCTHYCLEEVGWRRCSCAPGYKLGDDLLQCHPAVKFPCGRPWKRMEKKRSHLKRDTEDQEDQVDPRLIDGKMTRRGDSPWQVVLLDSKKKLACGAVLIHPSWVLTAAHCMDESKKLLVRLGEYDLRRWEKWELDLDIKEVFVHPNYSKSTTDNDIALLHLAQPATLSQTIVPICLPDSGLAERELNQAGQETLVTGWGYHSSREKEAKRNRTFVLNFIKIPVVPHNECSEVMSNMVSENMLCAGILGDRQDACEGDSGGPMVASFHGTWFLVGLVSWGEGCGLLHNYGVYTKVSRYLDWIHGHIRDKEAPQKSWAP
Assay: cell-based or functional assay
measurementType: …ON SUPPRESSION RATE (%), EXPERIMENT 2 (APTT coagulation time, human plasma)

# binder, value
measured = [
    ("anti-aPC antibody aPC#123 (hybridoma well No. 123) (antibody, IgG2b, V domains shown) VH: QVQLQQSGPELVKPGASVKISCKASGYAFSSSWMNWVKQRPGQGLEWIGRIYPGDGDTNYNGKFRGKATLTADKSSSTAYMQLTSLTSVDSAVYFCARWGITTAAWFAYWGQGTLVTVSA VL: DIQMTQSPASLSASVGETVTITCRTSENIYSYLAWYQQKQGKSPQLLVNNAKTLAEGVPSRFSGSGSGTQFSLKINSLQPEDFGTYYCQHYYGTPPTFGGGTKLEIK", 20.7),
    ("anti-aPC antibody aPC#281 (hybridoma well No. 281) (antibody, IgG1, V domains shown) VH: QIQLVQSGPELEKPGETVRISCKASGYTFTDYSLHWVKQAPGKGLKWMGWINTETGEPTYADDLKGRFAFSLETSATTAYLQINNLKNEDTATYFCARGITLDYWGQGTSLTVSS VL: DNVMSQSPSSLAVSVGEKVTMSCKSSQSLLSSSNQKNFLAWYQQKPGQSPKLLISWASTRHSGVPDRFTGSGSGTDFTLTISSVNAEDLAVYYCQQYYRYPLTFGAGTKLELK", 21.6),
    ("anti-aPC antibody aPC#285 (hybridoma well No. 285) (antibody, IgG1, V domains shown) VH: QVQLQQSGSEVVKPGASVKISCKASGYAFSRSWMNWVKQRPGQGLEWIGRIYPGDGDSIYNGKFKGKATLTADKSSTTAYMHLNSLTSVDSAVYFCARWGSSGSSWFAYWGQGTLVTVSA VL: DIQMTQSPASLSASMGETVTITCRTSENIYSYLAWYRQKQGKSPQLLVYNAKTLAEGVPSRFSGSGSGTQFSLRINSLQPEDFGSYFCQHYYGSPYTFGGGTKLEIK", 28.2),
]
